System: NCI/ADR-RES ovarian
Assay: NCI tumour cell line growth inhibition, 48 h; in the data active means GI50 below about 0.43 µM; inactive means the rest
Your reply should match one of these outcome classes. 1.0 (active), 0.0 (inactive)

Take a look at these entries with their results.
O=C1OCC2=C1C(c1cccc(Cl)c1)c1cc3c(cc1N2CCO)OCCO3 (stereo not drawn) ... 1.0
Cc1[nH]c2ccccc2c1CCCO ... 0.0

Kindly review the next compound as well.
Which result was noted for this compound in the test: Cc1cc(NCCCN(C)C)c2ccc3c(ccc4c(NCCCN(C)C)cc(C)nc43)c2n1
0.0

* * *

Tested on: 786-0 renal
Experiment: NCI tumour cell line growth inhibition, 48 h
measure name: TGI

Solved entries:
COc1ccc2c(CN3CCCC[C@H]3C(=O)O)cc3cc4c(cc3c2c1)OCO4 ... > 100 µM
O=C(c1ccc(Cl)cc1Cl)C1[C@H]2C(=O)N(c3ccc(Cc4ccc(N5C(=O)[C@@H]6ON(c7ccccc7)C(C(=O)c7ccc(Cl)cc7Cl)[C@@H]6C5=O)cc4)cc3)C(=O)[C@H]2ON1c1ccccc1 (some centres undefined) ... > 50 µM
COc1cc(C(=O)c2c(-c3ccccc3)oc3c(OC)cccc23)cc(OC)c1OC ... 3.1 µM
C=C1CC2OC(=O)C(=C)C2C(O)C2C(=C)CCC12 (centres undefined) ... 26.7 µM

Please look up its TGI: CC(=O)NCCC1CN(C(=O)/C=C/I)c2ccccc21 (centres undefined)
3.11 µM

Would you mind doing Cc1cccc(Nc2nn3c(=O)c4c5c(sc4nc3s2)CCCC5)c1 as well?
> 100 µM

Would you mind doing O=C1CCCCC1S(=O)(=O)c1ccccc1 (centres undefined) as well?
> 100 µM

Would you mind doing O=C1C[C@@H](C(=O)OCc2ccccc2)NC(=O)C[C@@H](C(=O)OCc2ccccc2)NC(=O)C[C@@H](C(=O)OCc2ccccc2)N1 as well?
> 100 µM

Would you mind doing CCOC(=O)CCC(NC(=O)OCc1ccccc1)C(=O)NC(CCC(=O)OCC)C(=O)NC(CCC(=O)OCC)C(=O)NC(CCC(=O)OCC)C(=O)NC(CCC(=O)OCC)C(=O)NC(CCC(=O)OCC)C(=O)NC(CCC(=O)OCC)C(=O)OCC (centres undefined) as well?
> 100 µM

Would you mind doing Cc1cc(NC(=O)NC(=O)c2ccccc2NC(=O)C(C)N)ccc1Oc1ncc(Br)cn1 (centres undefined) as well?
9.56 µM

Would you mind doing CC1(C)CC(O)C(C)(C)[C@@H](O)C1 (some centres undefined) as well?
> 100 µM

Would you mind doing CSC1=C(N)C(=O)c2[nH]cc(CO)c2C1=N as well?
3.24 µM

Would you mind doing O=C1CCCCC/C1=C\c1ccc([N+](=O)[O-])cc1 as well?
54.6 µM

Would you mind doing CN(C)c1ccc(/C(F)=C(F)/C(F)=C(F)/C(F)=C(\F)c2ccc(Br)cc2)cc1 as well?
22.2 µM

Would you mind doing Cc1cc(S(=O)(=O)N/C(=C(\C#N)C(=O)c2ccc(Cl)cc2)[n+]2ccc(N(C)C)cc2)c([S-])cc1Cl as well?
> 100 µM

Would you mind doing Cc1nc(Nc2ccccc2)sc1C(=O)CC(=O)C(=O)Nc1c(C(C)C)cccc1C(C)C as well?
> 100 µM

Would you mind doing C#CC#CC#CC#CC#CC#CC#CC#CCC1OCC(COC(=O)O[C@@H](C(=O)O[C@H]2C[C@@]3(O)[C@@H](OC(=O)c4ccccc4)[C@@H]4[C@]5(OC(C)=O)CO[C@@H]5C[C@H](O)[C@@]4(C)C(=O)[C@H](OC(C)=O)C(=C2C)C3(C)C)[C@@H](NC(=O)c2ccccc2)c2ccccc2)O1 (some centres undefined) as well?
> 33.3 µM
